System: NCI-H522
Method: NCI one-dose SRB assay (Non-Small Cell Lung Cancer)
Type: cell-based, human
Details: Homo sapiens; NCI-H522, 10 μM; read-out: Percentage growth inhibition (GI%)
inhibition at 10 µM vs 50%: at or above is label 1, below is label 0.

COc1ccc(-c2ccc(NC(=O)Nc3cccc(C(F)(F)F)c3)c(C)n2)cc1OC [Compound 8i] = label 1
COc1ccc(-c2ccc(NC(=O)Nc3ccc(Cl)c(C(F)(F)F)c3)c(C)n2)cc1 [Compound 8e] = label 1
COc1ccc(-c2ccc(NC(=O)Nc3cccc(C(F)(F)F)c3)c(C)n2)cc1 [Compound 8b] = label 1
COc1ccc(-c2ccc(NC(=O)Nc3cccc(Cl)c3)c(C)n2)cc1OC [Compound 8j] = label 0
COc1ccc(-c2ccc(NC(=O)Nc3ccc(Cl)cc3)c(C)n2)cc1 [Compound 8d] = label 0

// next entry
Q: Could you tell me if the measured inhibition at 10 µM of COc1cccc(NC(=O)Nc2ccc(-c3ccc(OC)c(OC)c3)nc2C)c1 [Compound 8m] reaches 50% or more?
Result: label 0
